System: HCC-44
protocol notes: relative viability (nuclei count vs DMSO), 5 days (fraction); higher = more cells survive
conditions used: first compound 0.06325 µM

# molecule, relative viability
records = [
    ("CCNC(=O)c1noc(-c2cc(C(C)C)c(O)cc2O)c1-c1ccc(CN2CCOCC2)cc1 [Luminespib] + CC(=O)Nc1cccc(-n2c(=O)n(C3CC3)c(=O)c3c(Nc4ccc(I)cc4F)n(C)c(=O)c(C)c32)c1 [Trametinib] (partner 0.02 µM)", 0.982),
    ("CCNC(=O)c1noc(-c2cc(C(C)C)c(O)cc2O)c1-c1ccc(CN2CCOCC2)cc1 [Luminespib] + Cc1nc(NC(=O)N2CCC[C@H]2C(N)=O)sc1-c1ccnc(C(C)(C)C(F)(F)F)c1 [Alpelisib] (partner 2 µM)", 0.152),
]

----------
The reader will find reported relative viability values listed item by item below.
System: NCI-H1793
protocol notes: relative viability (nuclei count vs DMSO), 5 days (fraction); higher = more cells survive
conditions used: first compound 0.03162 µM

# compound, relative viability
measured = [
    ("Cc1cn(-c2cc(NC(=O)c3ccc(C)c(Nc4nccc(-c5cccnc5)n4)c3)cc(C(F)(F)F)c2)cn1 [Nilotinib] + N=C(N)NC(=N)NCCc1ccccc1 [Phenformin] (partner 250 µM)", 0.196),
    ("Cc1cn(-c2cc(NC(=O)c3ccc(C)c(Nc4nccc(-c5cccnc5)n4)c3)cc(C(F)(F)F)c2)cn1 [Nilotinib] + CS(=O)(=O)CCNCc1ccc(-c2ccc3ncnc(Nc4ccc(OCc5cccc(F)c5)c(Cl)c4)c3c2)o1 [Lapatinib] (partner 2 µM)", 0.859),
    ("Cc1cn(-c2cc(NC(=O)c3ccc(C)c(Nc4nccc(-c5cccnc5)n4)c3)cc(C(F)(F)F)c2)cn1 [Nilotinib] + Cc1cc(Nc2cc(N3CCN(C)CC3)nc(Sc3ccc(NC(=O)C4CC4)cc3)n2)n[nH]1 [Tozasertib] (partner 0.1 µM)", 0.306),
]

----------
Test system: NCI-H661
protocol notes: relative viability (nuclei count vs DMSO), 5 days (fraction); higher = more cells survive
conditions used: first compound 2 µM

# compound, relative viability
rows = [
    ("CN1CCN(CCOc2cc(OC3CCOCC3)c3c(Nc4c(Cl)ccc5c4OCO5)ncnc3c2)CC1 [Saracatinib] + COc1cc2c(Oc3ccc(NC(=O)C4(C(=O)Nc5ccc(F)cc5)CC4)cc3F)ccnc2cc1OCCCN1CCOCC1 [Foretinib] (partner 0.25 µM)", 0.45),
    ("CN1CCN(CCOc2cc(OC3CCOCC3)c3c(Nc4c(Cl)ccc5c4OCO5)ncnc3c2)CC1 [Saracatinib] + CC(C)C[C@H](NC(=O)[C@H](Cc1ccccc1)NC(=O)c1cnccn1)B(O)O [Bortezomib] (partner 0.002 µM)", 0.373),
    ("CN1CCN(CCOc2cc(OC3CCOCC3)c3c(Nc4c(Cl)ccc5c4OCO5)ncnc3c2)CC1 [Saracatinib] + Cc1nc(Nc2ncc(C(=O)Nc3c(C)cccc3Cl)s2)cc(N2CCN(CCO)CC2)n1 [Dasatinib] (partner 0.075 µM)", 0.528),
    ("Cc1csc(=NC2CCCCC2)n1/N=C/c1ccc(O)c(O)c1O [MIM1] + CC(=O)c1c(C)c2cnc(Nc3ccc(N4CCNCC4)cn3)nc2n(C2CCCC2)c1=O [Palbociclib] (partner 0.5 µM)", 0.348),
]

From: the supplement of paper PMC10307832
